- TESTED_TARGET: human recombinant HDAC6 (Homo sapiens, UniProt Q9UBN7)
- Construct: purchased Calbiochem Inc. 382180
- TEST_NAME: HDAC6 enzyme activity inhibition (HDAC Fluorimetric Drug Discovery Kit)
- Type: biochemical
- COND: HDAC6 over HDAC1
RECORDED_METRIC: HDAC6 selectivity (fold)

CN(C)Cc1cccc(-c2cn(Cc3ccc(-c4nnc(C(F)F)o4)cc3F)nn2)c1Cl 1012

P. Fc1cc(-c2cn(Cc3ncc(-c4nnc(C(F)F)o4)cc3F)nn2)ccc1CN1CCC1
Q. CN1CCc2cc(-c3cn(Cc4ccc(-c5nnc(C(F)F)o5)cc4F)nn3)sc2C1
R. OCc1ccc(-c2cn(Cc3ccc(-c4nnc(C(F)F)o4)cc3F)nn2)nc1
Falling order of HDAC6 selectivity (fold), please. Return the labels ranked in the requested order, please.
P, R, Q

----------
- TESTED_TARGET: human recombinant HDAC6 (Homo sapiens, UniProt Q9UBN7)
- Construct: purchased Calbiochem Inc. 382180
- Sequence (Q9UBN7 1-1215): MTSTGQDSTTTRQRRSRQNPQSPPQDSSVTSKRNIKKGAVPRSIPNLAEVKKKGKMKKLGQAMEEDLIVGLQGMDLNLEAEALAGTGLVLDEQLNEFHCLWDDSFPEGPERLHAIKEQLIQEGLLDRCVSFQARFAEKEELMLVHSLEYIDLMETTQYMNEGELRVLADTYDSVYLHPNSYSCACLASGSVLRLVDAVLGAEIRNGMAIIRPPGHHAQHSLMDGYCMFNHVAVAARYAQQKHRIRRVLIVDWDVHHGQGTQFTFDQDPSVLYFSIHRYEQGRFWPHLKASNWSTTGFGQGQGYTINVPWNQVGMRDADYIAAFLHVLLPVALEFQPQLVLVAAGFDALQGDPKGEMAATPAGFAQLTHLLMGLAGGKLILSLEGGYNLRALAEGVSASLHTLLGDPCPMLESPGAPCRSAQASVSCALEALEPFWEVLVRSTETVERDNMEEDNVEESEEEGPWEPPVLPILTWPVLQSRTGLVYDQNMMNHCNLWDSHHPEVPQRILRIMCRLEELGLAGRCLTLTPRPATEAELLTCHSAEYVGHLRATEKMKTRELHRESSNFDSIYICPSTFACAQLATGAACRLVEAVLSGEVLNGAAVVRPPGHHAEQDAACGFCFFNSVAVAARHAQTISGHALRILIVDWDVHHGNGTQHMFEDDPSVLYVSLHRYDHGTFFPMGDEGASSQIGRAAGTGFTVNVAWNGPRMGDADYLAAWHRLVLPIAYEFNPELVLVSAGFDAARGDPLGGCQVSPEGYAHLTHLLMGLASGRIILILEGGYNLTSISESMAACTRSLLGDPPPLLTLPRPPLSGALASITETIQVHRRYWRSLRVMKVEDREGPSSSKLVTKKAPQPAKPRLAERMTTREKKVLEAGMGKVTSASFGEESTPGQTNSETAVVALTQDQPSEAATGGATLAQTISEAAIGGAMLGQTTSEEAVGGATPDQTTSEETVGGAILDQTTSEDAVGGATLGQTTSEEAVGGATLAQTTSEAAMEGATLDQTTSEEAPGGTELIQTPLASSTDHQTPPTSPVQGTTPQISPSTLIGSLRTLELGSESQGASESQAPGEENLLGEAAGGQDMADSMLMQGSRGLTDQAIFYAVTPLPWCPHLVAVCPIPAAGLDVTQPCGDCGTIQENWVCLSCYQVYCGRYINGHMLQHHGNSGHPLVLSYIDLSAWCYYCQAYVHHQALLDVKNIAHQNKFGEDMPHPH
- TEST_NAME: HDAC6 enzyme activity inhibition (HDAC Fluorimetric Drug Discovery Kit)
- Format: biochemical
- COND: HDAC6 over HDAC1
RECORDED_METRIC: HDAC6 selectivity (fold)

COMPOUND	TESTED_TARGET	RECORDED_METRIC	MEASURED_RESULT
CC(C)N1CCN(c2cccc(-c3cn(Cc4ccc(-c5nnc(C(F)F)o5)cc4F)nn3)n2)CC1 [Compound 17363]	human recombinant HDAC6 (Homo sapiens, UniProt Q9UBN7)	HDAC6 selectivity (fold)	2212
CN(C)[C@H]1CCN(Cc2ccc(-c3cn(Cc4ccc(-c5nnc(C(F)F)o5)cc4F)nn3)cc2)C1 [Compound 4604]	human recombinant HDAC6 (Homo sapiens, UniProt Q9UBN7)	HDAC6 selectivity (fold)	2347
Fc1cc(-c2nnc(C(F)F)o2)cnc1Cn1cc(-c2ccc(CN3CCCC3)cc2Cl)nn1 [Compound 19100]	human recombinant HDAC6 (Homo sapiens, UniProt Q9UBN7)	HDAC6 selectivity (fold)	868
CC(C)N1CCN(c2cccc(-c3cn(Cc4ccc(-c5nnc(C(F)F)o5)cn4)nn3)c2F)CC1 [Compound 4571]	human recombinant HDAC6 (Homo sapiens, UniProt Q9UBN7)	HDAC6 selectivity (fold)	2732
CN(C)Cc1ccc(-c2cn(Cc3ccc(-c4nnc(C(F)F)o4)cc3F)nn2)cc1Cl [Compound 18711]	human recombinant HDAC6 (Homo sapiens, UniProt Q9UBN7)	HDAC6 selectivity (fold)	524
FC1CN(Cc2ccc(-c3cn(Cc4ccc(-c5nnc(C(F)F)o5)cc4)nn3)cc2)C1 [Compound 4549]	human recombinant HDAC6 (Homo sapiens, UniProt Q9UBN7)	HDAC6 selectivity (fold)	1213

a. CC(C)N1Cc2cccc(-c3cn(Cc4ccc(-c5nnc(C(F)F)o5)cc4)nn3)c2C1 [Compound 4531]
b. Fc1cc(-c2nnc(C(F)F)o2)cnc1Cn1cc(-c2ccc(CN3CCC3)cc2)nn1 [Compound 18306]
c. Fc1cc(-c2nnc(C(F)F)o2)ccc1Cn1cc(-c2ccc(CN3CCCCC3)cc2)nn1 [Compound 4610]
d. Fc1cc(-c2nnc(C(F)F)o2)ccc1Cn1cc(-c2ccc(CN3CCC3)cn2)nn1 [Compound 17532]
Sequence the entries by HDAC6 selectivity (fold), beginning with the highest number. Give me the labels in the order the question wants.
c, d, b, a
(c: 3496 fold, d: 2100 fold, b: 1184 fold, a: 412 fold)
